experiment: NCI Yeast Anticancer Drug Screen. Data for the sgs1 mgt1 strain (AID 161);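 also: 0% = growth of cultures given vehicle only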; details: S. cerevisiae sgs1 mgt1 strain, at 50.0 µM, active compounds read high
The panel holds about 79,000 compounds, 15% with a hit somewhere; the sample as a whole holds those more often.
Exercise: for every item that follows, state its recorded growth inhibition.
Numbers only, in %.

Before answering, review these 3 worked examples.
{"molecule": "N#CCCC1C(=O)CCCC1=O", "reported": -0.85}
{"molecule": "CCC(=O)Nc1ccc(F)cc1", "reported": -0.45}
{"molecule": "O=C(O)c1ccccc1Nc1nc2ccccc2o1", "reported": -7.05}

I have 8 molecules here; please give me growth inhibition for each one.
1. O=C(NCCNCCO)N/N=C/c1ccccc1
2. O=C(O)CSc1nc2c(Cl)c(Cl)c(Cl)cc2[nH]1
3. Cc1ccc(C(=O)OCC2OC(Cl)CC2OC(=O)c2ccc(C)cc2)cc1 (stereo unspecified)
4. COc1cc(C(=O)C(C=O)c2ccccc2)c([N+](=O)[O-])cc1OC (stereo unspecified)
5. CN(C)C=N[C@@H](C(=O)O)c1ccccc1
6. Nc1c(OS(=O)(=O)c2ccccc2)cccc1OS(=O)(=O)c1ccccc1
7. O=C(OCCCCO)c1cc([N+](=O)[O-])cc([N+](=O)[O-])c1
8. O=C(N/N=C\c1cccc(O)c1)c1ccncc1

Result string:
1. -15.9
2. 2
3. 26.8
4. 21.5
5. -11.4
6. 18.8
7. 0.1
8. -37.5
